- MEASUREMENT_PROTOCOL: Intrinsic clearance in CD-1 mouse liver microsomes assessed per mg protein at 0.2 uM by LC-MS/MS analysis
- Assay type: ADME, microsome
- TEST_SETTINGS: read-out: CLH
PARAMETER: microsomal CLint at 0.2 µM

In the examples that follow, each entry is paired with its recorded microsomal CLint at 0.2 µM.
CCCCc1ccc(-c2c(C)nc3c(OCc4ccccc4C)cccn23)cc1 | 628 µL/min/mg
CCCCN1CCC(c2c(C)nc3c(OCc4ccccc4C)cccn23)CC1 | > 1000 µL/min/mg
CCCC(=O)N1CCC(c2c(C)nc3c(OCc4ccccc4C)cccn23)CC1.Cl | > 1000 µL/min/mg

Next up:
Inquiry: Using the record for CCN1Cc2cc(-c3c(C)nc4c(OCc5ccccc5C)cccn34)ccc2C1=O.Cl , report its microsomal CLint at 0.2 µM.
Reply text: 611 µL/min/mg

* * *

- MEASUREMENT_PROTOCOL: Drug uptake in ddY mouse plasma at 30 mg/kg, ip after 3 hrs by LC-MS/MS analysis
- Assay type: ADME, organism-based
PARAMETER: concentration at 3 h (nM)
Answer format: numeric, nM implied, no suffix.

Inquiry: Using the record for CCCC(=O)N1CCC(c2c(C)nc3c(OCc4ccccc4C)cccn23)CC1.Cl , report its concentration at 3 h.
Reply text: 9.4

* * *

- MEASUREMENT_PROTOCOL: Brain to plasma partition coefficient, Kp in ddY mouse at 30 mg/kg, po after 3 hrs by LC-MS/MS analysis
- Type: ADME, organism-based
PARAMETER: Kp at 3 h
When you answer, write just the number.

Inquiry: Using the record for CCN1Cc2cc(-c3c(C)nc4c(OCc5ccccc5C)cccn34)ccc2C1=O.Cl , report its Kp at 3 h.
Reply text: 0.72

* * *

Quick reference for pIC50 among some molecules
- TESTED_ON: Gamma-secretase
- MEASUREMENT_PROTOCOL: Modulatory activity against gamma-secretase in human SK-N-BE(2) cells assessed as reduction in amyloid beta 42 production after 6 hrs by sandwich ELISA
// pIC50 here means minus log10 of the molar concentration (mol/L)

In the examples that follow, each entry is paired with its recorded pIC50.
Cc1ccccc1COc1cccn2c(-c3ccncc3)c(C)nc12 | 5.15
CCN1Cc2cc(-c3c(C)nc4c(OCc5ccccc5C)cccn34)ccc2C1=O.Cl | 6.41
CCCCN1CCC(c2c(C)nc3c(OCc4ccccc4C)cccn23)CC1 | 5.06
CCNC(=O)c1ccc(-c2c(C)nc3c(OCc4ccccc4C)cccn23)cc1 | 5.64
CCCC(=O)N1CCC(c2c(C)nc3c(OCc4ccccc4C)cccn23)CC1.Cl | 6.16

Inquiry: Using the record for Cc1ccccc1COc1cccn2c(C3CCN(C)CC3)c(C)nc12 , report its pIC50.
Reply text: 5.01

Inquiry: Using the record for CCOC(=O)c1ccc(-c2c(C)nc3c(OCc4ccccc4C)cccn23)cc1 , report its pIC50.
Reply text: 5.74

Inquiry: Using the record for Cc1nc2c(OCc3ccccc3)cccn2c1C1CCN(C2CCCCC2)CC1 , report its pIC50.
Reply text: 5.24

Inquiry: Using the record for CCOC(=O)N1CCC(c2c(C)nc3c(OCc4ccccc4C)cccn23)CC1 , report its pIC50.
Reply text: 5.89

* * *

- MEASUREMENT_PROTOCOL: Drug uptake in ddY mouse plasma at 30 mg/kg, po after 3 hrs by LC-MS/MS analysis
- Type: ADME, organism-based
PARAMETER: concentration at 3 h (nM)
Answer format: numeric, nM implied, no suffix.

Inquiry: Using the record for CCN1Cc2cc(-c3c(C)nc4c(OCc5ccccc5C)cccn34)ccc2C1=O.Cl , report its concentration at 3 h.
Reply text: 960

* * *

- MEASUREMENT_PROTOCOL: Brain to plasma partition coefficient, Kp in ddY mouse at 30 mg/kg, po after 1 hr by LC-MS/MS analysis
- Assay type: ADME, organism-based
PARAMETER: Kp at 1 h
When you answer, write just the number.

Inquiry: Using the record for CCN1Cc2cc(-c3c(C)nc4c(OCc5ccccc5C)cccn34)ccc2C1=O.Cl , report its Kp at 1 h.
Reply text: 0.72

* * *

- MEASUREMENT_PROTOCOL: Drug uptake in ddY mouse plasma at 30 mg/kg, ip after 1 hr by LC-MS/MS analysis
- Format: ADME, organism-based
PARAMETER: concentration at 1 h (nM)
Answer format: numeric, nM implied, no suffix.

Inquiry: Using the record for CCCC(=O)N1CCC(c2c(C)nc3c(OCc4ccccc4C)cccn23)CC1.Cl , report its concentration at 1 h.
Reply text: 700

* * *

- TESTED_ON: Gamma-secretase
- MEASUREMENT_PROTOCOL: Modulatory activity against gamma-secretase in human SK-N-BE(2) cells assessed as reduction in amyloid beta 42 production after 6 hrs by sandwich ELISA
pIC50: −log10 of the molar value.
Quick reference for pIC50 among some molecules

CCCCc1ccc(-c2c(C)nc3c(OCc4ccccc4C)cccn23)cc1 | < 4.30
CCN(C)C(=O)c1ccc(-c2c(C)nc3c(OCc4ccccc4C)cccn23)cc1 | < 5.00

Inquiry: Using the record for Cc1nc2c(OCc3ccccc3)cccn2c1CN(C)CCN(C)C , report its pIC50.
Reply text: < 4.30
